Data provenance: the supplement of paper PMC13380429

Quick list: cell viability per entry.
# Tested on: Calu-3
# ASSAY INFO: cell viability relative to DMSO; higher = less toxic
# DETAILS: 72 h; 1000 nM

COMPOUND	UNIT OF MEASUREMENT	cell viability
Cc1coc2c1C(=O)C(=O)c1c-2ccc2c(C)cccc12	%	110
CCCN1CCC[C@@H]2Cc3nc(N)ncc3C[C@H]21	%	103
CC(C)(OCc1nn(Cc2ccccc2)c2ccccc12)C(=O)O	%	95.1
CC(C)[C@@H](C)/C=C/[C@@H](C)[C@H]1CC[C@H]2/C(=C/C=C3\C[C@@H](O)CC[C@@H]3C)CCC[C@]12C [dihydrotachysterol]	%	99.6
CC(C(=O)O)c1ccc2c(c1)[nH]c1ccc(Cl)cc12 (stereo not given)	%	104
CC1=NN=C(c2ccc(N)cc2)c2cc3c(cc2C1)OCO3	%	87.6
O=C1O[C@H](CO)[C@@H](O)[C@H](O)[C@H]1O	%	97.2
CC(=O)N(CC(O)CO)c1c(I)c(C(=O)NCCO)c(I)c(C(=O)NCC(O)CO)c1I (stereo not given)	%	101
CC(C)C(=O)SCCCCC[C@H](NC(=O)OC(C)(C)C)C(=O)NC12CC3CC(CC(C3)C1)C2 [TCS-HDAC6-20b]	%	108
CCC[N+]12[C@H](O)[C@@H](CC)[C@@H]3C[C@H]1[C@@H]1N(C)c4ccccc4[C@]14C[C@H]2[C@@H]3[C@H]4O	%	100
COc1cc(C[C@@H](CO[C@@H]2O[C@H](CO)[C@@H](O)[C@H](O)[C@H]2O)[C@H](CO[C@@H]2O[C@H](CO)[C@@H](O)[C@H](O)[C@H]2O)Cc2ccc(O)c(OC)c2)ccc1O [secoisolariciresinol-diglucoside]	%	103
O=C(Nc1ccncc1)C(=O)c1cn(Cc2ccc(Cl)cc2)c2ccccc12	%	102
Fc1ccc(-c2nc3n(c2-c2ccncc2)CCS3)cc1	%	87.7
CCCCCCCCCCCCCCCC(=O)OC(CC(=O)[O-])C[N+](C)(C)C (stereo not given)	%	97
O=c1[nH]ccc2cc(OC3CCNCC3)ccc12	%	127
C[C@H](NC(=O)Cc1cc(F)cc(F)c1)C(=O)N[C@H](C(=O)OC(C)(C)C)c1ccccc1	%	91.1
CC(Oc1ccc(O)cc1)(P(=O)(O)O)P(=O)(O)O	%	84.8
Cc1cc(-n2c(=O)[nH]c(=O)n(C)c2=O)ccc1Oc1ccc(SC(F)(F)F)cc1	%	106
CC(C)(C)c1ccc(/C=C/C(=O)Nc2ccc3c(c2)OCCO3)cc1	%	94.5
Cc1[nH]c2ccccc2c1CCNC(=O)c1cccs1	%	99.7
NNC(=O)CSc1nc2scc(-c3ccccc3)c2c(=O)n1-c1ccccc1	%	103
O=c1[nH]c2ccccc2n1C1CCN(CCOc2ccccc2)CC1 [oxiperomide]	%	97.9
CCCCOc1cc(CC2CNC(=O)N2)ccc1OC (stereo not given)	%	108
NCc1c[nH]c(=S)n1[C@H]1CCc2c(F)cc(F)cc2C1 [nepicastat]	%	103
CC(C)(C)c1ccc(CN2CCN(C(c3ccccc3)c3ccc(Cl)cc3)CC2)cc1 (stereo not given)	%	87.1
COc1ccc2c(NC(=O)Nc3cccc(C(F)(F)F)n3)ccnc2c1	%	94.8
CCCC(=O)C1(c2ccccc2)CCN(C(=O)[C@@H](Cc2ccc(OC)cc2)NC(=O)[C@@H](N)Cc2cncn2C)CC1	%	101
CCOC(=O)[C@H](CCc1ccccc1)N[C@H]1CS[C@H](c2cccs2)CN(CC(=O)O)C1=O	%	103
CCN1C(C)(C)CC(Oc2ccc(C(=O)Nc3ccc(NC(=O)Nc4cc(C(C)(C)C)on4)cc3)nc2)CC1(C)C	%	89.4
CCC(C/C=C/c1ccccc1)(c1ccccc1)N(C)CC1CC1 (stereo not given)	%	102
OC[C@H]1O[C@@H](O[C@@H]2[C@H](O)[C@@H](O)[C@H](O[C@H]3[C@H](O)[C@@H](O)C(O)O[C@@H]3CO)O[C@@H]2CO)[C@H](O)[C@@H](O)[C@H]1O (stereo not given in full)	%	93.3
CCN1/C(=C/C(C)=O)Sc2ccc(OC)cc21	%	96.8
Fc1ccc(-c2c3cccc(C(F)(F)F)c3nn2Cc2ccc(F)cc2Cl)cc1	%	93.7
C=CCN1CCc2cc(O)c(O)cc2[C@H](c2ccccc2)C1	%	103
CN1C(=O)OC(C)(C)C1=O	%	118
